Listed below: log10 EC95 values for each entry.
test system: Leishmania infantum; assay: Antileishmanial activity against Leishmania infantum zymodeme MON-1 axenic amastigotes assessed as parasite survival after 24 hrs; assay type: functional, organism-based; settings: zymodeme MON-1, 24 h
Assay endpoint: log10 EC95 (log10 of the value in µg/mL)

{"columns": ["Molecule", "Tested system", "log10 EC95"],
 "data": [
  ["COc1ccc([C@H](CC(=O)c2ccccc2)[C@H]2C(=O)Nc3ccccc32)cc1 (relative stereo)", "Leishmania infantum", 1.88],
  ["C[C@@H]1[C@H](O)[C@@H](C)/C=C/C=C/C=C/C=C/C=C/C=C/C=C/[C@H](O[C@@H]2O[C@H](C)[C@@H](O)[C@H](N)[C@@H]2O)C[C@@H]2O[C@](O)(C[C@@H](O)C[C@@H](O)[C@H](O)CC[C@@H](O)C[C@@H](O)CC(=O)O[C@H]1C)C[C@H](O)[C@H]2C(=O)O", "Leishmania infantum", 0.59],
  ["Cc1ccc([C@H](CC(=O)c2ccccc2)[C@H]2C(=O)Nc3ccccc32)cc1 (relative stereo)", "Leishmania infantum", 2.00],
  ["COc1ccc([C@@H]2CC(=O)C[C@@H](c3ccc(OC)cc3)C23C(=O)Nc2ccccc23)cc1", "Leishmania infantum", 1.90],
  ["O=C1C[C@@H](c2ccc(Cl)cc2)C2(C(=O)Nc3ccccc32)[C@H](c2ccc(Cl)cc2)C1", "Leishmania infantum", 1.88],
  ["O=C(/C=C/c1ccccc1)c1ccccc1", "Leishmania infantum", 1.90],
  ["O=C1Cc2ccccc2N1", "Leishmania infantum", 2.63]
]}

* * *

experiment: Therapeutic index, ratio of TC50 for mouse RAW264.7 cells to EC50 for Leishmania infantum zymodeme MON-1 axenic amastigotes after 48 hrs; details: read-out: TI
selectivity ratio at 48 h vs 4: less than gives 1.0; not less than gives 0.0.

{"columns": ["Compound", "Answer label"],
 "data": [
  ["Cc1ccc([C@@H]2CC(=O)C[C@@H](c3ccc(C)cc3)C23C(=O)Nc2ccccc23)cc1", 0.0],
  ["O=C1C[C@@H](c2ccc(Cl)cc2)C2(C(=O)Nc3ccccc32)[C@H](c2ccc(Cl)cc2)C1", 0.0],
  ["COc1ccc([C@H](CC(=O)c2ccccc2)[C@H]2C(=O)Nc3ccccc32)cc1 (relative stereo)", 1.0],
  ["O=C(CC(c1ccc(Cl)cc1)C1C(=O)Nc2ccccc21)c1ccccc1 (configuration not stated)", 1.0],
  ["Cc1ccc([C@H](CC(=O)c2ccccc2)[C@H]2C(=O)Nc3ccccc32)cc1 (relative stereo)", 1.0],
  ["O=C1Cc2ccccc2N1", 1.0],
  ["O=C(C[C@@H](c1ccccc1)[C@H]1C(=O)Nc2ccccc21)c1ccccc1 (relative stereo)", 0.0],
  ["O=C(/C=C/c1ccccc1)c1ccccc1", 0.0],
  ["COc1ccc([C@@H]2CC(=O)C[C@@H](c3ccc(OC)cc3)C23C(=O)Nc2ccccc23)cc1", 1.0],
  ["O=C1C[C@@H](c2ccccc2)C2(C(=O)Nc3ccccc32)[C@H](c2ccccc2)C1", 0.0],
  ["C[C@@H]1[C@H](O)[C@@H](C)/C=C/C=C/C=C/C=C/C=C/C=C/C=C/[C@H](O[C@@H]2O[C@H](C)[C@@H](O)[C@H](N)[C@@H]2O)C[C@@H]2O[C@](O)(C[C@@H](O)C[C@@H](O)[C@H](O)CC[C@@H](O)C[C@@H](O)CC(=O)O[C@H]1C)C[C@H](O)[C@H]2C(=O)O", 0.0],
  ["O=C(CC(c1cccc(Cl)c1)C1C(=O)Nc2ccccc21)c1ccccc1 (configuration not stated)", 0.0]
]}

* * *

Listed below: selectivity ratio at 24 h values for each entry.
assay: Therapeutic index, ratio of TC50 for mouse RAW264.7 cells to EC50 for Leishmania infantum zymodeme MON-1 promastigotes after 24 hrs; details: read-out: TI
Assay endpoint: selectivity ratio at 24 h

{"columns": ["Molecule", "Result"],
 "data": [
  ["Cc1ccc([C@H](CC(=O)c2ccccc2)[C@H]2C(=O)Nc3ccccc32)cc1 (relative stereo)", 1.5],
  ["O=C(CC(c1cccc(Cl)c1)C1C(=O)Nc2ccccc21)c1ccccc1 (stereo not given)", 6.1],
  ["O=C(CC(c1ccc(Cl)cc1)C1C(=O)Nc2ccccc21)c1ccccc1 (stereo not given)", 1.8],
  ["COc1ccc([C@@H]2CC(=O)C[C@@H](c3ccc(OC)cc3)C23C(=O)Nc2ccccc23)cc1", 3.3],
  ["O=C(C[C@@H](c1ccccc1)[C@H]1C(=O)Nc2ccccc21)c1ccccc1 (relative stereo)", 4.4]
]}

* * *

assay: Cytotoxicity against mouse RAW264.7 cells after 48 hrs by MTT assay; assay type: cell-based; conditions: read-out: TC50
Listed below: CC50 at 48 h values for each entry.

{"columns": ["Compound", "CC50 at 48 h, µg/mL"],
 "data": [
  ["O=C(/C=C/c1ccccc1)c1ccccc1", 30.7],
  ["Cc1ccc([C@H](CC(=O)c2ccccc2)[C@H]2C(=O)Nc3ccccc32)cc1 (relative stereo)", 67.6],
  ["O=C(C[C@@H](c1ccccc1)[C@H]1C(=O)Nc2ccccc21)c1ccccc1 (relative stereo)", 66.6],
  ["C[C@@H]1[C@H](O)[C@@H](C)/C=C/C=C/C=C/C=C/C=C/C=C/C=C/[C@H](O[C@@H]2O[C@H](C)[C@@H](O)[C@H](N)[C@@H]2O)C[C@@H]2O[C@](O)(C[C@@H](O)C[C@@H](O)[C@H](O)CC[C@@H](O)C[C@@H](O)CC(=O)O[C@H]1C)C[C@H](O)[C@H]2C(=O)O", 3.1],
  ["O=C1C[C@@H](c2ccc(Cl)cc2)C2(C(=O)Nc3ccccc32)[C@H](c2ccc(Cl)cc2)C1", 21.3],
  ["COc1ccc([C@@H]2CC(=O)C[C@@H](c3ccc(OC)cc3)C23C(=O)Nc2ccccc23)cc1", 51],
  ["O=C(CC(c1ccc(Cl)cc1)C1C(=O)Nc2ccccc21)c1ccccc1 (configuration not stated)", 35]
]}

* * *

Listed below: selectivity ratio values for each entry.
test: Therapeutic index, ratio of TC50 for mouse RAW264.7 cells to EC50 for Leishmania infantum zymodeme MON-1 axenic amastigotes; settings: read-out: TI

{"columns": ["Compound", "selectivity ratio"],
 "data": [
  ["O=C(CC(c1cccc(Cl)c1)C1C(=O)Nc2ccccc21)c1ccccc1 (stereo not drawn)", 6.3],
  ["O=C(/C=C/c1ccccc1)c1ccccc1 [CHALCONE]", 5.5],
  ["O=C(C[C@@H](c1ccccc1)[C@H]1C(=O)Nc2ccccc21)c1ccccc1 (relative stereo)", 4.7],
  ["Cc1ccc([C@H](CC(=O)c2ccccc2)[C@H]2C(=O)Nc3ccccc32)cc1 (relative stereo)", 1.6],
  ["Cc1ccc([C@@H]2CC(=O)C[C@@H](c3ccc(C)cc3)C23C(=O)Nc2ccccc23)cc1", 10.6],
  ["O=C1C[C@@H](c2ccccc2)C2(C(=O)Nc3ccccc32)[C@H](c2ccccc2)C1", 3.1],
  ["O=C1Cc2ccccc2N1 [OXINDOLE]", 0.6],
  ["COc1ccc([C@@H]2CC(=O)C[C@@H](c3ccc(OC)cc3)C23C(=O)Nc2ccccc23)cc1", 3.8]
]}

* * *

test system: Leishmania infantum; assay: Antileishmanial activity against Leishmania infantum zymodeme MON-1 promastigotes assessed as parasite survival after 48 hrs; type: functional, organism-based; details: zymodeme MON-1, 48 h
EC50 vs 7 µg/mL: less than gives rule met; not less than gives rule not met.

{"columns": ["Compound", "Tested system", "Answer label"],
 "data": [
  ["O=C(CC(c1cccc(Cl)c1)C1C(=O)Nc2ccccc21)c1ccccc1 (configuration not stated)", "Leishmania infantum", "rule not met"],
  ["O=C1C[C@@H](c2ccc(Cl)cc2)C2(C(=O)Nc3ccccc32)[C@H](c2ccc(Cl)cc2)C1", "Leishmania infantum", "rule met"],
  ["Cc1ccc([C@@H]2CC(=O)C[C@@H](c3ccc(C)cc3)C23C(=O)Nc2ccccc23)cc1", "Leishmania infantum", "rule met"],
  ["COc1ccc([C@H](CC(=O)c2ccccc2)[C@H]2C(=O)Nc3ccccc32)cc1 (relative stereo)", "Leishmania infantum", "rule not met"],
  ["O=C(CC(c1ccc(Cl)cc1)C1C(=O)Nc2ccccc21)c1ccccc1 (configuration not stated)", "Leishmania infantum", "rule not met"],
  ["Cc1ccc([C@H](CC(=O)c2ccccc2)[C@H]2C(=O)Nc3ccccc32)cc1 (relative stereo)", "Leishmania infantum", "rule not met"],
  ["C[C@@H]1[C@H](O)[C@@H](C)/C=C/C=C/C=C/C=C/C=C/C=C/C=C/[C@H](O[C@@H]2O[C@H](C)[C@@H](O)[C@H](N)[C@@H]2O)C[C@@H]2O[C@](O)(C[C@@H](O)C[C@@H](O)[C@H](O)CC[C@@H](O)C[C@@H](O)CC(=O)O[C@H]1C)C[C@H](O)[C@H]2C(=O)O", "Leishmania infantum", "rule met"],
  ["O=C(C[C@@H](c1ccccc1)[C@H]1C(=O)Nc2ccccc21)c1ccccc1 (relative stereo)", "Leishmania infantum", "rule met"],
  ["O=C1Cc2ccccc2N1", "Leishmania infantum", "rule not met"],
  ["O=C(/C=C/c1ccccc1)c1ccccc1", "Leishmania infantum", "rule met"],
  ["COc1ccc([C@@H]2CC(=O)C[C@@H](c3ccc(OC)cc3)C23C(=O)Nc2ccccc23)cc1", "Leishmania infantum", "rule not met"]
]}

Ref: ChEMBL document CHEMBL3102842
